MEASURED TARGET: mALDH1a3 (Mus musculus)
Sequence (Q9JHW9 whole entry): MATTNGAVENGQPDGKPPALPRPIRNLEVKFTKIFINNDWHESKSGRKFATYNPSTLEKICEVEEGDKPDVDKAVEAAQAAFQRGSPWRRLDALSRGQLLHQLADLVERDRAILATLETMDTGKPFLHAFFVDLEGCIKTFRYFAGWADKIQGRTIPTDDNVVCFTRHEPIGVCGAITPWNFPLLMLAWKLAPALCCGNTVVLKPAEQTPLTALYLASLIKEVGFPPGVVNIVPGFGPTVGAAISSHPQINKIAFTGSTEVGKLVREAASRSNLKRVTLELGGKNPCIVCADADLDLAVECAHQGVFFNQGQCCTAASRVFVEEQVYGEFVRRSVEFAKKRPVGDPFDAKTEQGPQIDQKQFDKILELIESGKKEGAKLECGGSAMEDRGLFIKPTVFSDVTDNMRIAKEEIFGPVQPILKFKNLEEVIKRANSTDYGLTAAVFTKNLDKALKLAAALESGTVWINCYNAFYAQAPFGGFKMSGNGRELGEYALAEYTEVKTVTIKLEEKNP
PROTOCOL NOTES: Aldh1a3 enzyme inhibition assay (resorufin fluorescence), mouse enzyme
CONDITION SUMMARY: recombinant enzyme, 20° C., activity level classes
REPORTED ENDPOINT: IC50

1. CCc1csnc1C(=O)Nc1cc(C)c2c(c1)C1CC1C(=O)N2 (stereo not shown) ... < 100 nM
2. CCc1scnc1C(=O)Nc1cc2c(c(C3CC3)c1)NC(=O)CC2 ... 100 to 250 nM
3. O=C(Nc1cc(F)c2c(c1)C1CC1C(=O)N2)c1ocnc1CC(F)(F)F (stereo not shown) ... 250 to 1000 nM
4. CCc1sncc1C(=O)Nc1cc(C)c2c(c1)C1CC1C(=O)N2 (stereo not shown) ... < 100 nM
5. CCc1ncsc1C(=O)Nc1cc(Cl)c2c(c1)C1CC1C(=O)N2 (stereo not shown) [Compound 43] ... < 100 nM
6. Cc1c(F)c(NC(=O)c2ncsc2CC(F)(F)F)cc2c1NC(=O)CC2 ... 100 to 250 nM
7. CCc1ncoc1C(=O)Nc1cc(C)c2c(c1)C1CC1C(=O)N2 (stereo not shown) ... 100 to 250 nM
8. Cc1cc(NC(=O)c2ccncc2-c2ccccc2)cc2c1NC(=O)CC2 ... 1000 to 5000 nM
9. CCc1scnc1C(=O)Nc1cc(C)c2c(c1)C1CC1C(=O)N2 (stereo not shown) ... 250 to 1000 nM
10. CCc1ncoc1C(=O)Nc1cc(C)c2c(c1)CCC(=O)N2 ... 100 to 250 nM
11. Cc1cc(NC(=O)c2scnc2C2CC2)cc2c1NC(=O)CC2 ... 100 to 250 nM
12. CCc1ncsc1C(=O)Nc1cc(C)c2c(c1)C1CC1C(=O)N2 (stereo not shown) ... < 100 nM
13. O=C1CCc2cc(NC(=O)c3ncsc3CC(F)(F)F)cc(Cl)c2N1 ... 100 to 250 nM
14. Cc1cc(NC(=O)c2ccncc2CC2(C)CC2)cc2c1NC(=O)CC2 ... 250 to 1000 nM
15. Cc1cc(NC(=O)c2scnc2CC(F)(F)F)cc2c1NC(=O)CC2 ... < 100 nM
16. Cc1cc(NC(=O)c2ocnc2CC(F)(F)F)cc2c1NC(=O)C1CC21 (stereo not shown) ... 100 to 250 nM
17. O=C(Nc1cc(Cl)c2c(c1)C1CC1C(=O)N2)c1scnc1CC(F)(F)F (stereo not shown) [Compound 42] ... < 100 nM
18. Cc1cc(NC(=O)c2ocnc2CC(F)(F)F)cc2c1NC(=O)CC2 ... 100 to 250 nM
19. O=C1CCc2cc(NC(=O)c3scnc3-c3cccc(F)c3)ccc2N1 ... 100 to 250 nM
20. CCCc1ncsc1C(=O)Nc1cc(C)c2c(c1)CCC(=O)N2 ... 100 to 250 nM
21. O=C1CCc2cc(NC(=O)c3ccncc3-c3ccccc3)cc(Cl)c2N1 ... 1000 to 5000 nM
22. Cc1cc(NC(=O)c2cnsc2CC(F)(F)F)cc2c1NC(=O)CC2 ... < 100 nM
23. Cc1cc(NC(=O)c2scnc2C)cc2c1NC(=O)CC2 ... 250 to 1000 nM
24. Cc1cc(NC(=O)c2ccccc2-c2cccc(F)c2)cc2c1NC(=O)CC2 ... > 5000 nM
25. Cc1c(Cl)c(NC(=O)c2ncsc2CC(F)(F)F)cc2c1NC(=O)CC2 ... < 100 nM
26. Cc1cc(NC(=O)c2scnc2CC(C)C)cc2c1NC(=O)CC2 ... 250 to 1000 nM
27. CCc1ncsc1C(=O)Nc1cc(Cl)c2c(c1)CCC(=O)N2 ... < 100 nM
28. CCc1cnsc1C(=O)Nc1cc(C)c2c(c1)CCC(=O)N2 ... < 100 nM
29. Cc1cc(NC(=O)c2scnc2CC(F)(F)F)cc2c1NC(=O)C1CC21 (stereo not shown) ... < 100 nM
30. Cc1cc(NC(=O)c2ccncc2CC(F)(F)F)cc2c1NC(=O)CS2(=O)=O ... 1000 to 5000 nM
31. CCc1ncoc1C(=O)Nc1cc(F)c2c(c1)C1CC1C(=O)N2 (stereo not shown) ... 1000 to 5000 nM
32. CCc1scnc1C(=O)Nc1cc(Cl)c2c(c1)CCC(=O)N2 ... 100 to 250 nM
33. CCc1nc[nH]c1C(=O)Nc1cc(C)c2c(c1)CCC(=O)N2 ... 250 to 1000 nM
34. CCc1sncc1C(=O)Nc1cc(C)c2c(c1)CCC(=O)N2 ... < 100 nM
35. O=C1CCc2cc(NC(=O)c3scnc3CC(F)(F)F)cc(Cl)c2N1 ... < 100 nM
36. CCc1ncsc1C(=O)Nc1cc(Cl)c2c(c1)C1CC1C(=O)N2 (stereo not shown) [Compound 38] ... < 100 nM
37. Cc1cc(NC(=O)c2scnc2-c2cccc(F)c2)cc2c1NC(=O)CC2 ... 250 to 1000 nM

###

MEASURED TARGET: mALDH1a2 (Mus musculus, UniProt Q62148)
PROTOCOL NOTES: Aldh1a2 enzyme inhibition assay (resorufin fluorescence), mouse enzyme
CONDITION SUMMARY: recombinant enzyme, 20° C., activity level classes
REPORTED ENDPOINT: IC50

1) CCc1csnc1C(=O)Nc1cc(C)c2c(c1)C1CC1C(=O)N2 (stereo not drawn) ... 100 to 250 nM
2) Cc1cc(NC(=O)c2ccncc2-c2ccccc2F)cc2c1NC(=O)CC2 ... 250 to 1000 nM
3) Cc1cc(NC(=O)c2ocnc2CC(F)(F)F)cc2c1NC(=O)C1CC21 (stereo not drawn) ... 100 to 250 nM
4) Cc1cc(OCCN(C)Cc2cccc(F)c2)cc2c1NC(=O)CC2 ... 1000 to 5000 nM
5) CCc1sncc1C(=O)Nc1cc(C)c2c(c1)C1CC1C(=O)N2 (stereo not drawn) ... 100 to 250 nM
6) Cc1cc(NC(=O)c2scnc2CC(F)(F)F)cc2c1NC(=O)CC2 ... 250 to 1000 nM
7) CCc1ncsc1C(=O)Nc1cc2c(c(C)c1Cl)NC(=O)CC2 ... 250 to 1000 nM
8) Cc1ccc(-c2cnccc2C(=O)Nc2cc(C)c3c(c2)CCC(=O)N3)cc1 ... > 5000 nM
9) Cc1cc(NC(=O)c2scnc2C2CC2)cc2c1NC(=O)CC2 ... 250 to 1000 nM
10) Cc1cc(NC(=O)c2ccncc2-c2ccccc2C#N)cc2c1NC(=O)CC2 ... > 5000 nM
11) CCc1nc[nH]c1C(=O)Nc1cc(C)c2c(c1)CCC(=O)N2 ... 1000 to 5000 nM
12) Cc1cc(NC(=O)c2ccncc2CC(F)(F)F)cc2c1NC(=O)CS2 ... 250 to 1000 nM

###

MEASURED TARGET: mALDH1a2 (Mus musculus)
Sequence (Q62148 1-518): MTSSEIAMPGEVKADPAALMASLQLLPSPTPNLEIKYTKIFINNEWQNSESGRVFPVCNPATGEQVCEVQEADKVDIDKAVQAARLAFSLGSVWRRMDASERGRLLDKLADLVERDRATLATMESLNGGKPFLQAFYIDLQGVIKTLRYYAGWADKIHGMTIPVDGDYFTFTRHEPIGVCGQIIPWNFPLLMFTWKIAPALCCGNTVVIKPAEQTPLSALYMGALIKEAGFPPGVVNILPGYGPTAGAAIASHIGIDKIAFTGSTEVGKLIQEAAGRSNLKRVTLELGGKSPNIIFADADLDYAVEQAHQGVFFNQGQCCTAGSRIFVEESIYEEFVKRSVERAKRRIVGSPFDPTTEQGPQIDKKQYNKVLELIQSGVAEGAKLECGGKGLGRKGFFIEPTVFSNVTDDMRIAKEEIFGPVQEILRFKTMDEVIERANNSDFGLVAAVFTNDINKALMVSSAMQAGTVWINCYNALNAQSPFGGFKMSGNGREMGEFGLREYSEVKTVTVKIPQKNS
PROTOCOL NOTES: Aldh1a2 enzyme inhibition assay (resorufin fluorescence), mouse enzyme
CONDITION SUMMARY: recombinant enzyme, 20° C., activity level classes
REPORTED ENDPOINT: IC50

1) CCc1ncsc1C(=O)Nc1cc(Cl)c2c(c1)CCC(=O)N2 [Compound 83] ... < 0.1 µM
2) CCc1ncoc1C(=O)Nc1cc(C)c2c(c1)CCC(=O)N2 ... 1 to 5 µM
3) O=C1CCc2cc(NC(=O)c3ccccc3-c3cccc(F)c3)ccc2N1 ... > 5 µM
4) Cc1cc(NC(=O)c2ccncc2-c2ccccc2)cc2c1NC(=O)CC2 ... 0.1 to 0.25 µM
5) CCc1ncsc1C(=O)Nc1cc(Cl)c2c(c1)C1CC1C(=O)N2 (stereo not drawn) [Compound 43] ... 1 to 5 µM
6) Cc1cccc(-c2cnccc2C(=O)Nc2cc(C)c3c(c2)CCC(=O)N3)c1 ... 1 to 5 µM
7) CCc1ncoc1C(=O)Nc1cc(C)c2c(c1)C1CC1C(=O)N2 (stereo not drawn) ... 0.25 to 1 µM
8) O=C(Nc1cc(Cl)c2c(c1)C1CC1C(=O)N2)c1scnc1CC(F)(F)F (stereo not drawn) [Compound 37] ... 0.1 to 0.25 µM
9) CCc1cnsc1C(=O)Nc1cc(C)c2c(c1)CCC(=O)N2 ... 0.1 to 0.25 µM
